Entry source: patent US6767907B2

- Target or system: 5-HT2A receptors (Rattus norvegicus, UniProt P14842)
- Construct: 5-HT2A receptors in membranes from rat is determined in vitro; from tissue; host or cells: rat cortex membranes
- Sequence (P14842 whole entry): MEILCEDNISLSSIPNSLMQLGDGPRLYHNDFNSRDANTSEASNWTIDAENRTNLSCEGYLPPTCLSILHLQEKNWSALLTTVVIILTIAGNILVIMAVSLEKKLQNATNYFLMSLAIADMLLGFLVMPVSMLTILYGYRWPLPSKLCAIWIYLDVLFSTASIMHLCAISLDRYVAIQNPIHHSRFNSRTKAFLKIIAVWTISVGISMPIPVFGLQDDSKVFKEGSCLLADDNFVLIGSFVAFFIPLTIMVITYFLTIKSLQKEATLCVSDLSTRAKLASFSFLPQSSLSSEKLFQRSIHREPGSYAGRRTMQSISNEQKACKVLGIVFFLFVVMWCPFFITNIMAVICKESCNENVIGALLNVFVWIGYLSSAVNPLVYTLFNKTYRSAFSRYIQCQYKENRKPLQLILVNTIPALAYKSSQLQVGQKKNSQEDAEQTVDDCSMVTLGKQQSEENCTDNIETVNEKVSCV
- Protocol description: Inhibition of 3H-Ketanserin binding to 5-HT2 receptors in rat cortex in vitro
- Run conditions: 3H-Ketanserin 0.5 nM; membranes from rat cortex; read-out: 3H Ketanserin (5-HT2A) binding, IC50
- Protocol: Inhibition of ^3H-Ketanserin Binding to 5-HT2 Receptors in Rat Cortex in vitro. By this method the inhibition by drugs of the binding of ^3H-Ketanserin (0.5 nM) to 5-HT2A receptors in membranes from rat is determined in vitro .
Could you please report measured IC50 for the items listed next?
Report only the number, with the unit nM understood.

For the compound O=C(Nc1ccc2c(c1)C(CN1CCC(c3ccc(F)cc3)CC1)CC2)N1CCCC1 (stereo not drawn) , what IC50 is on record?
9.9

For the compound CC(=O)Nc1ccc2c(c1)C(CN1CCN(c3ccc(F)cc3)CC1)CC2 (stereo not drawn) , what IC50 is on record?
2.9

For the compound CS(=O)(=O)Nc1ccc2c(c1)C(CN1CCC(c3ccc(F)cc3)CC1)CC2 (stereo not drawn) , what IC50 is on record?
2.1

For the compound CC(=O)Nc1ccc2c(c1)C(CN1CCC(c3c[nH]c4ccc(Cl)cc34)CC1)CS2 (stereo not drawn) [Compound 11a] , what IC50 is on record?
42

For the compound CC(=O)Nc1ccc2c(c1)C(CN1CCC(c3ccc(F)cc3)CC1)CS2 (stereo not drawn) , what IC50 is on record?
2.3

For the compound CC(=O)Nc1ccc2c(c1)C(CN1CCC(c3c[nH]c4ccc(F)cc34)CC1)CC2 (stereo not drawn) [Compound 11c] , what IC50 is on record?
15

For the compound Nc1ccc2c(c1)C(CN1CCC(c3ccc(F)cc3)CC1)CC2 (stereo not drawn) , what IC50 is on record?
2.5

For the compound NC(=O)Nc1ccc2c(c1)C(CN1CCC(c3ccc(F)cc3)CC1)CC2 (stereo not drawn) , what IC50 is on record?
2.6

For the compound O=C(Nc1ccc(F)cc1)Nc1ccc2c(c1)C(CN1CCC(c3ccc(F)cc3)CC1)CC2 (stereo not drawn) , what IC50 is on record?
37

* * *

- Target or system: 5-HT2A receptors (Rattus norvegicus)
- Construct: 5-HT2A receptors in membranes from rat is determined in vitro; from tissue; host or cells: rat cortex membranes
- Protocol description: Inhibition of 3H-Ketanserin binding to 5-HT2 receptors in rat cortex in vitro
- Run conditions: 3H-Ketanserin 0.5 nM; membranes from rat cortex; read-out: 3H Ketanserin (5-HT2A) binding, IC50
Could you please report measured pIC50 for the items listed next?
# log scale: pIC50 equals minus log10 of the concentration in mol/L

Find the measured pIC50: item CC(=O)Nc1ccc2c(c1)C(CN1CCN(c3ccc(Cl)cc3)CC1)CC2 (centres unmarked) [Compound 4d] , target or system 5-HT2A receptors (Rattus norvegicus).
8.30

Find the measured pIC50: item O=C(Nc1ccc2c(c1)C(CN1CCC(c3ccc(F)cc3)CC1)CC2)C1CCCC1 (centres unmarked) [Compound 4k] , target or system 5-HT2A receptors (Rattus norvegicus).
7.52

Find the measured pIC50: item Nc1ccc2c(c1)C(CN1CCN(c3ccc(Cl)c(Cl)c3)CC1)CC2 (centres unmarked) [Compound 2h] , target or system 5-HT2A receptors (Rattus norvegicus).
8.39

Find the measured pIC50: item CC(=O)Nc1ccc2c(c1)C(CN1CC=C(c3c[nH]c4ccc(Cl)cc34)CC1)CS2 (centres unmarked) [Compound 11b] , target or system 5-HT2A receptors (Rattus norvegicus).
7.36

Find the measured pIC50: item CC(=O)Nc1ccc2c(c1)C(CN1CC=C(c3c[nH]c4ccc(Cl)cc34)CC1)CC2 (centres unmarked) [Compound 11g] , target or system 5-HT2A receptors (Rattus norvegicus).
6.74

Find the measured pIC50: item O=C(Nc1ccc2c(c1)C(CN1CCC(c3ccc(F)cc3)CC1)CC2)C1CC1 (centres unmarked) [Compound 4j] , target or system 5-HT2A receptors (Rattus norvegicus).
7.82

Find the measured pIC50: item CC(=O)Nc1ccc2c(c1)C(CN1CC=C(c3c[nH]c4cc(Cl)ccc34)CC1)CC2 (centres unmarked) [Compound 11e] , target or system 5-HT2A receptors (Rattus norvegicus).
6.89

Find the measured pIC50: item CC(=O)Nc1ccc2c(c1)C(CN1CCC(c3cn(C)c4cc(Cl)ccc34)CC1)CC2 (centres unmarked) [Compound 15b] , target or system 5-HT2A receptors (Rattus norvegicus).
6.52

Find the measured pIC50: item CC(=O)Nc1ccc2c(c1)C(CN1CC=C(c3ccc(F)cc3)CC1)CC2 (centres unmarked) [Compound 4h] , target or system 5-HT2A receptors (Rattus norvegicus).
8.55

Find the measured pIC50: item CNc1ccc2c(c1)C(CN1CCC(c3ccc(F)cc3)CC1)CC2 (centres unmarked) [Compound 16a] , target or system 5-HT2A receptors (Rattus norvegicus).
8.80

Find the measured pIC50: item CC(=O)Nc1ccc2c(c1)C(CN1CC=C(c3c[nH]c4ccc(F)cc34)CC1)CS2 (centres unmarked) [Compound 11d] , target or system 5-HT2A receptors (Rattus norvegicus).
7.82

Find the measured pIC50: item O=C1CCCN1c1ccc2c(c1)C(CN1CCC(c3ccc(F)cc3)CC1)CC2 (centres unmarked) [Compound 12a] , target or system 5-HT2A receptors (Rattus norvegicus).
8.46

Find the measured pIC50: item CN(C)C(=O)Nc1ccc2c(c1)C(CN1CCC(c3ccc(F)cc3)CC1)CC2 (centres unmarked) [Compound 6a] , target or system 5-HT2A receptors (Rattus norvegicus).
8.04

Find the measured pIC50: item CC(=O)Nc1ccc2c(c1)C(CN1CCN(c3ccc(Cl)c(Cl)c3)CC1)CC2 (centres unmarked) [Compound 4o] , target or system 5-HT2A receptors (Rattus norvegicus).
7.29

Find the measured pIC50: item CC(=O)Nc1ccc2c(c1)C(CN1CCC(c3c[nH]c4cc(Cl)ccc34)CC1)CC2 (centres unmarked) [Compound 11f] , target or system 5-HT2A receptors (Rattus norvegicus).
7.68

Find the measured pIC50: item CNC(=O)Nc1ccc2c(c1)C(CN1CCC(c3ccc(F)cc3)CC1)CC2 (centres unmarked) [Compound 5a] , target or system 5-HT2A receptors (Rattus norvegicus).
8.29

Find the measured pIC50: item CC(=O)Nc1ccc2c(c1)C(CN1CCC(c3ccc(C)cc3)CC1)CC2 (centres unmarked) [Compound 4n] , target or system 5-HT2A receptors (Rattus norvegicus).
8.41

* * *

Counter-ions that a name gives are not always drawn.
Endpoint label: melting point

For the molecule Nc1ccc2c(c1)C(CN1CCN(c3ccc(Cl)cc3)CC1)CC2 (centres unmarked) , what melting point is on record?
98 to 109 °C

For the molecule Nc1ccc2c(c1)C(CN1CC=C(c3ccc(F)cc3)CC1)CC2 (centres unmarked) , what melting point is on record?
78 to 84 °C

For the molecule CNC(=O)Nc1ccc2c(c1)C(CN1CCN(c3ccc4c(c3)OCO4)CC1)CC2 (centres unmarked) (as salt: oxalate) , what melting point is on record?
132 to 133 °C

For the molecule CC(=O)Nc1ccc2c(c1)C(CN1CC=C(c3cn(C)c4cc(Cl)ccc34)CC1)CC2 (centres unmarked) [Compound 15a] , what melting point is on record?
189 to 193 °C

For the molecule CNC(=S)Nc1ccc2c(c1)C(CN1CCC(c3ccc(F)cc3)CC1)CC2 (centres unmarked) (as salt: fumarate) , what melting point is on record?
181 to 183 °C

For the molecule CC(=O)Nc1ccc2c(c1)C(CN1CCN(c3ccc(Cl)c(Cl)c3)CC1)CC2 (centres unmarked) , what melting point is on record?
160 to 163 °C

For the molecule CC(=O)Nc1ccc2c(c1)C(CN1CCN(c3ccc(Cl)cc3)CC1)CC2 (centres unmarked) , what melting point is on record?
191 to 194 °C

For the molecule CC(=O)Nc1ccc2c(c1)C(CN1CC=C(c3c[nH]c4ccc(Cl)cc34)CC1)CS2 (centres unmarked) (as salt: oxalate) [Compound 11b] , what melting point is on record?
214 to 216 °C

* * *

Could you please report measured melting point for the items listed next?
Where a name gives a salt, the structure may show the parent alone.

For the molecule CC(=O)Nc1ccc2c(c1)C(CN1CCC(c3c[nH]c4cc(Cl)ccc34)CC1)CC2 (stereo not shown) (as salt: oxalate) [Compound 11f] , what melting point is on record?
122 to 130 °C

For the molecule CS(=O)(=O)Nc1ccc2c(c1)C(CN1CCC(c3ccc(F)cc3)CC1)CC2 (stereo not shown) , what melting point is on record?
152 to 155 °C

For the molecule CCOC(=O)Nc1ccc2c(c1)C(CN1CCC(c3ccc(F)cc3)CC1)CC2 (stereo not shown) (as salt: fumarate) , what melting point is on record?
191 to 193 °C

For the molecule CC(=O)Nc1ccc2c(c1)C(CN1CC=C(c3c[nH]c4cc(Cl)ccc34)CC1)CC2 (stereo not shown) (as salt: oxalate) (hydrate or solvate) [Compound 11e] , what melting point is on record?
151 to 164 °C
